system: HCC1569; assay: H1.0 immunofluorescence intensity relative to DMSO (% of DMSO); higher = stronger H1.0 induction, active = 140 or more; conditions: concentration: 10 µM; 24 h
Labels: 1.0 = active, 0.0 = inactive

- molecule: "O=C(O)CCC(=O)N1CCC[C@H]1C(=O)O"
  label class: 0.0
- molecule: "Cl.FC(F)(F)c1cc(COC2CCCNC2c2ccccc2)cc(C(F)(F)F)c1 [L-733,060 hydrochloride]"
  label class: 0.0
- molecule: "COc1ccc(/C=C\\c2cc(OC)c(OC)c(OC)c2)cc1O [2-methoxy-5-[(Z)-2-(3,4,5-trimethoxyphenyl)ethenyl]phenol]"
  label class: 1.0
- molecule: "CN1CCN(CCCN2c3ccccc3Sc3ccc(C(F)(F)F)cc32)CC1.Cl.Cl [Trifluoperazine.2HCl]"
  label class: 0.0
- molecule: "C[N+](C)(C)CCO.[Cl-] [2-hydroxy-N,N,N-trimethylethanaminium chloride]"
  label class: 0.0
- molecule: "O=C(O)CCCC=CCC=CC=CC(O)CC=CCCCCCO (stereo not drawn)"
  label class: 0.0
- molecule: "CCCCCCCCCC(=O)OCC(CO)OC(=O)CCCCCCCCC (stereo not drawn)"
  label class: 0.0
- molecule: "CNC1C(OC2OC(CO)C(N)C(O)C2O)OC2CC(N)C(OC3C(N)CC(N)C(O)C3O)OC2C1O (stereo not drawn)"
  label class: 0.0

----------
system: HCC1569; test: H1.0 immunofluorescence intensity relative to DMSO (% of DMSO); higher = stronger H1.0 induction, active = 140 or more; conditions: concentration: 10 µM; 24 h
endpoint label: H1.0 immunofluorescence intensity

- molecule: "CCC(C)C(CC)C(N)=O (stereo not drawn) [2-ethyl-3-methylpentanamide]"
  measured number: 96.6
- molecule: "O=C(CCCc1ccc(-c2ccccc2F)cc1)Nc1ccc(O)cc1 [MK2a Inhibitor]"
  measured number: 129
- molecule: "Cc1ncc([N+](=O)[O-])n1CC(C)O (stereo not drawn) [Secnidazole]"
  measured number: 107
- molecule: "NS(=O)(=O)c1cc(C2(O)NC(=O)c3ccccc32)ccc1Cl (stereo not drawn)"
  measured number: 104
- molecule: "FC(F)(F)c1ccc(CNc2ccc(Cc3c[nH]c4ncccc34)cn2)cc1"
  measured number: 139
- molecule: "C[C@H](C#Cc1ccc(Cc2ccc(F)cc2)s1)N(O)C(N)=O"
  measured number: 99.7
- molecule: "CCCCCC(=O)C=CC1C(O)CC(=O)C1CC=CCCCC(=O)O (stereo not drawn) [15-keto-prostaglandin E2]"
  measured number: 90.9
- molecule: "COc1cc2c[n+](C)c3c4cc5c(cc4ccc3c2cc1OC)OCO5.[Cl-]"
  measured number: 106
- molecule: "COc1cc2nccc(Oc3ccc(NC(=O)Nc4ccc(F)cc4F)c(F)c3)c2cc1OC"
  measured number: 108
- molecule: "CCCn1c(=O)c2c(ncn2C)n(CCC)c1=O [1,3-Dipropyl-7-methylxanthine]"
  measured number: 94.8
- molecule: "C[C@H](C(=O)O)c1cccc(C(=O)c2ccccc2)c1 [(S)-(+)-Ketoprofen]"
  measured number: 100
- molecule: "CCCCc1oc2ccccc2c1C(=O)c1cc(I)c(OCCN(CC)CC)c(I)c1.Cl [Amiodarone.HCl]"
  measured number: 110
- molecule: "CC(C)Cn1c(=O)n(C)c(=O)c2[nH]cnc21 [3-Isobutyl-1-methylxanthine]"
  measured number: 88.2
- molecule: "Nc1ncnc2c1nc(Br)n2C1OC2COP(=O)([O-])OC2C1O.[Na+] (stereo not drawn) [8-Bromo-cAMP sodium]"
  measured number: 90.3
- molecule: "CC(N)(Cc1ccc(O)cc1)C(=O)O [L-alpha-Methyl-p-tyrosine]"
  measured number: 90.6
- molecule: "Cc1ccccc1N1CCN(S(=O)(=O)CC23CCC(CC2NC(=O)C(N)CCS(C)(=O)=O)C3(C)C)CC1.Cl (stereo not drawn)"
  measured number: 99
- molecule: "O=C([O-])C=CC(O)c1ccc(Cl)cc1.[Na+] (stereo not drawn)"
  measured number: 92.9
- molecule: "CC(C(=O)O)c1cccc(Oc2ccccc2)c1 (stereo not drawn) [Fenoprofen]"
  measured number: 120

----------
test system: TDF; assay: cell number relative to DMSO (% of DMSO); higher = more cells (less growth inhibition / toxicity); conditions: concentration: 10 µM; 24 h
Listed compounds paired with reported cell number

- compound: "CCN1CCc2nc(N)oc2CC1.Cl.Cl [B-HT 933 dihydrochloride]"
  cell number: 104
- compound: "CC[N+](CC)(CC)CCOc1ccc(C=Cc2ccccc2)cc1.[I-]"
  cell number: 72.2
- compound: "CCCCCCCCCC(=O)O"
  cell number: 95.3
- compound: "Nc1nc(SCc2ccc([N+](=O)[O-])cc2)c2ncn(C3OC(CO)C(O)C3O)c2n1 (stereo not drawn)"
  cell number: 98.2
- compound: "Clc1cccc(CNC2=Nc3ccccc3NC23CCNCC3)c1"
  cell number: 89.6
- compound: "O=C(CCCCCCC(=O)Nc1ccccc1)NO"
  cell number: 95.7
- compound: "CN1CCc2cc(Cl)c(O)cc2C(c2ccccc2)C1.Cl (stereo not drawn)"
  cell number: 104
- compound: "CCCCCCCCCCCCCCCC(=O)NCCO [Palmitoylethanolamide]"
  cell number: 101
- compound: "CC(C=CC1=C(C)CCCC1(C)C)=CC=CC(C)=CC(=O)O [Retinoic acid]"
  cell number: 102
- compound: "O=c1oc2cc(O)ccc2c2oc3cc(O)ccc3c12"
  cell number: 91.8
- compound: "CC(=O)O.CSC(N)=NCCCC(N)C(=O)O [S-Methyl-L-thiocitrulline acetate]"
  cell number: 108
- compound: "Cl.NC(=NCc1ccccc1)NC(=O)c1nc(Cl)c(N)nc1N [Benzamil hydrochloride]"
  cell number: 105
- compound: "CCCCCC=CCC(O)C=CC=CCCC(=O)O [Tetranor-12(R)-HETE]"
  cell number: 93.9
- compound: "Cc1scc2c1N(C(=O)CN1CCN(C)CC1)c1ccccc1NC2=O.Cl.Cl [Telenzepine.2HCl]"
  cell number: 99.1
- compound: "CN(c1ccccc1CNc1nc(Nc2ccc3c(c2)CC(=O)N3)ncc1C(F)(F)F)S(C)(=O)=O"
  cell number: 22.4
- compound: "CCCCCN(CCCCC)C(=O)C(CCC(=O)O)NC(=O)c1ccc(Cl)c(Cl)c1 (stereo not drawn) [Lorglumide]"
  cell number: 91.5
- compound: "CC(C)(C)C(=O)Oc1ccc(S(=O)(=O)Nc2ccccc2C(=O)NCC(=O)[O-])cc1.O.[Na+]"
  cell number: 98.8
- compound: "CNC1C(OC2OC(CO)C(N)C(O)C2O)OC2CC(N)C(OC3C(N)CC(N)C(O)C3O)OC2C1O (stereo not drawn)"
  cell number: 96.3

----------
test system: TDF; assay: cell number relative to DMSO (% of DMSO); higher = more cells (less growth inhibition / toxicity); settings: concentration: 10 µM; 24 h
Binary classification by cell number, with 100 as an inclusive lower bound for TRUE; all other cases are FALSE.

- molecule: "Cl.O.O.c1ccc2c(c1)CN1CCCC1=N2"
  label class: "TRUE"
- molecule: "Cc1cncc2cccc(S(=O)(=O)N3CCCN(C(=O)CN)CC3C)c12.Cl.Cl.O (stereo not given)"
  label class: "FALSE"
- molecule: "CCCNC(C)C(=O)Nc1ccccc1C.Cl (stereo not given) [Prilocaine hydrochloride]"
  label class: "TRUE"
- molecule: "O=C1CCC(N2C(=O)c3ccccc3C2=O)C(=O)N1 (racemic)"
  label class: "TRUE"

----------
Listed compounds paired with reported cell number
test system: HCC1569; assay: cell number relative to DMSO (% of DMSO); higher = more cells (less growth inhibition / toxicity); conditions: concentration: 10 µM; 24 h
endpoint label: cell number

- compound: "C1CNCCN1.COc1cc(C(O)CO)ccc1O.COc1cc(C(O)CO)ccc1O (configuration not stated)"
  measured number: 100
- compound: "CCN1CCCC1CNC(=O)c1c(O)c(Cl)cc(Cl)c1OC.O=C(O)C(O)C(O)C(=O)O [S(+)-Raclopride L-tartrate]"
  measured number: 101
- compound: "CC(=O)N1CCN(C(=O)/C=C/c2ccc(Sc3ccccc3C(C)C)c([N+](=O)[O-])c2)CC1"
  measured number: 82.5
- compound: "Cc1cc2c(OCC(CNC(C)(C)C)OC(=O)c3ccccc3)cccc2[nH]1 (configuration not stated)"
  measured number: 98.1
- compound: "COc1cc2c(cc1OC)-c1[nH]nc(Nc3cccc(F)c3)c1C2"
  measured number: 64.3
- compound: "CC=C1C2C=C(C)CC1(N)c1ccc(=O)[nH]c1C2 (single isomer, unassigned; (-)) [(-)-Huperazine]"
  measured number: 98.2
- compound: "CC(=O)C1(O)Cc2c(O)c3c(c(O)c2C(OC2CC(N)C(O)C(C)O2)C1)C(=O)c1ccccc1C3=O (configuration not stated)"
  measured number: 49.1

Data origin: the supplement of paper PMC7156485
